Test system: HepG2
Assay: cytotoxicity call (relative viability < 0.9)
Conditions: 10 µM
The whole screen tested about 39,000 compounds, of which about 3,300 (8.5%) were called active. Only a selection was taken, and actives are over-represented in it overall.
Classes used: t (active), f (inactive)

Smiles Structure	Answer Label
C[C@H]1CN([C@@H](C)CO)C(=O)c2c(c3ccccc3n2C)-c2ccccc2CO[C@H]1CN(C)Cc1ccc2c(c1)OCCN2C	f
C[C@H]1CN([C@@H](C)CO)S(=O)(=O)c2ccc(C#CC3(O)CCCC3)cc2O[C@H]1CN(C)C(=O)c1ccncc1	f
CCN1C[C@]23CN(C(=O)c4cnccn4)C[C@@H](C[C@H]2S1(=O)=O)O3	f
CN1CCN(C(=O)C[C@@H]2C=C[C@@H](NC(=O)Nc3ccccc3F)[C@@H](CO)O2)CC1	f
C[C@H](CO)N1C[C@H](C)[C@@H](CN(C)Cc2ccc3c(c2)OCCN3C)OCc2ccccc2-c2c(n(C)c3ccccc23)C1=O	f
Cc1noc(C)c1S(=O)(=O)N(C)C[C@@H]1OCCCC[C@H](C)Oc2ccc(NC(=O)Nc3ccccc3)cc2C(=O)N([C@@H](C)CO)C[C@H]1C	f
COc1ccc(CN(C)C[C@@H]2OCCCC[C@@H](C)Oc3ccc(NC(=O)NC(C)C)cc3C(=O)N([C@H](C)CO)C[C@@H]2C)cc1	f
CN1CCCN=C1C=Cc1cccc(O)c1.O=C(O)c1cc2ccccc2c(Cc2c(O)c(C(=O)O)cc3ccccc23)c1O	f
COc1ccc(S(=O)(=O)N(C)C[C@@H]2Oc3c(NC(=O)c4cnccn4)cccc3C(=O)N([C@@H](C)CO)C[C@H]2C)cc1	f
Cc1cc(C=Cc2ccc3cc(N(C)C)ccc3[n+]2C)c(C)n1-c1ccccc1.O=C([O-])c1cc2ccccc2c(Cc2c(O)c(C(=O)O)cc3ccccc23)c1O	t
CC(C)NC(=O)N(C)C[C@@H]1Oc2ccc(NC(=O)NC3CCCCC3)cc2C(=O)N([C@@H](C)CO)C[C@H]1C	f
C[C@H](CO)N1C[C@H](C)[C@H](CN(C)Cc2ccc3c(c2)OCCN3C)OCc2ccccc2-c2c(n(C)c3ccccc23)C1=O	f
CN1CCCN=C1C=Cc1cccs1.O=C(O)c1cc2ccccc2c(Cc2c(O)c(C(=O)O)cc3ccccc23)c1O	f
C[C@@H]1CN([C@H](C)CO)C(=O)c2c(c3ccccc3n2C)-c2ccccc2CO[C@H]1CN(C)Cc1ccc2c(c1)OCCN2C	f
C[C@@H]1CN([C@@H](C)CO)C(=O)c2c(c3ccccc3n2C)-c2ccccc2CO[C@@H]1CN(C)Cc1ccc2c(c1)OCO2	f
